These measurements were taken from PubChem BioAssay AID1347076.

Experiment: qHTS assay for MDR1-selective chemotherapeutics: Primary screen using the drug-selected MDR subline cells KB-V1; also: nearly all actives have a fitted effect of over 60% in size
Conditions: KB-V1 MDR cells viability, CellTiter-Glo, 72 h; series mostly up to 46.1 µM
From the text: A prime difficulty in effectively treating cancer is the development of cellular resistance to multiple structurally unrelated anticancer drugs, a phenomenon known as multidrug resistance (MDR). […] Numerous strategies to overcome P-gp-mediated MDR have been explored, including the design of drugs that evade recognition and efflux, and development of inhibitors to block efflux and restore drug accumulation. […]
About 13,000 (3.2%) of roughly 400,000 compounds were called active. Roughly 18% stayed inconclusive and do not appear here. Calls follow the shape of the dose curve; as a rule, active = well fitted cell-killing curve with a large enough effect; inconclusive = small, poorly fitted or top-dose-only effect, or effect the other way; inactive = flat fitted curve, though single readings scatter. The sample as a whole holds a higher share of actives than the screen did.
Possible outcomes: label 1 = active, label 0 = inactive

• O=c1[nH]c(=O)n(Cc2ccco2)c2c1C(C(F)(F)F)(C(F)(F)F)N=C(c1ccco1)N2 = label 0
• O=C(C(=O)N1CCC(c2ccccc2)CC1)c1ccccc1 = label 0
• COCCCNc1ccn2nc(-c3ccc(CC(C)C)cc3)cc2n1 = label 0
• Cc1ccccc1C1=NC(C(F)(F)F)(C(F)(F)F)c2c(n(-c3ccc(F)cc3)c(=O)[nH]c2=O)N1 = label 1
• CCCCCc1c(Cc2ccccc2)ncn1CCc1ccccc1OC = label 0
• Cc1[nH]c2ccccc2c1C(=O)CN1CC(C)CC(C)C1 (stereo not given) = label 0
• CN1OC[C@@H]2CN(S(=O)(=O)c3cccc(C(F)(F)F)c3)[C@H](c3ccc(-c4cc5ccccc5o4)cc3)C[C@@H]21 = label 0
• COc1cccc(C(=O)NC2(C(F)(F)F)C(=O)Nc3c2c(=O)[nH]c(=O)n3-c2ccc(C)cc2)c1 (stereo not given) = label 0
• CC1(C)OC(=O)C2=C(CC(c3ccccc3)OC2CCc2ccccc2)O1 (stereo not given) = label 0
• CCN1CCN(CCNC(=O)c2ccc3c(c2)NC(=O)/C(=C\c2cccc(Cl)c2)S3)CC1 = label 0
